- Experiment notes: Single oral dose human plasma pharmacokinetics of D, DA and DOH after Cogni.Q
- Format: in vivo
- Test settings: human, plasma, oral, 4 Cogni.Q vegicaps, subject S15 (177 lb); read-out: Cmax
Observed property: Cmax (nM)
Record the value in nM, omitting the unit from your answer.

Tell us which Cmax value is on record for C/C=C(/C)C(=O)O[C@H]1Cc2cc3ccc(=O)oc3cc2OC1(C)C [DA, decursinol angelate]
196

Report Cmax for `CC(C)=CC(=O)O[C@H]1Cc2cc3ccc(=O)oc3cc2OC1(C)C`
16.8

Kindly indicate its recorded Cmax. Item: `CC1(C)Oc2cc3oc(=O)ccc3cc2C[C@@H]1O`
4020
